Tested on: SR leukemia
TEST_DESCRIPTION: NCI-60 one-dose screen, 48 h (100 = growth as untreated, 0 = no growth, -100 = all killed)
ASSAY_SETUP: 10 µM unless noted
This is part of a sample that, as a whole, favours compounds with a hit. Of some 83,000 tested, about 20% had one in any assay.
MEASURED_PROPERTY: growth (%)
Give just the number in %; leave the unit off.

MOLECULE | growth [%]
CN(Cc1cc(Cl)cc(Cl)c1O)Cc1cc(Cl)cc(Cl)c1O | 62.6
C=C1c2nc3ccccc3n2C=C(c2ccc(Cl)cc2)N1Cc1ccc(OC)cc1 | -2.2
CCN(CC)S(=O)(=O)c1ccc(OC)c(NC(=O)c2[nH]c(C)c3c2CCCCC3=O)c1 | 43.4
COc1cc2c(cc1O)CC[C@@H]1[C@@H]2CC[C@]2(C)[C@@H](NCCN(C)C)CC[C@@H]12 | -67.2
O=C1Nc2cc(-c3ccc(O)cc3)ccc2/C1=C/c1ccc[nH]1 | 5.01
COc1ccc(CN2c3ccccc3Oc3ccccc32)cc1F | 27.1
Fc1ccc(CNc2cccc3[nH]c(C(F)(F)F)nc23)cc1 | 66
CC(=O)c1nc2ccccc2n1CC(=O)c1cccc(Cl)c1 | -12.6

Incoming: Lab note: need growth with SR leukemia for entry CCCCCCN(CCCCCC)CCC(O)c1ccc2ccccc2c1 (stereo not given) , please look it up.
Outgoing: 0.428

Incoming: Please answer likewise for COc1ccc(C(=O)c2sc3nc4c(c(-c5cccnc5)c3c2N)CCCC4)cc1OC
Outgoing: 37.8
